Where do these numbers come from? They come from PubChem BioAssay AID1963826.

pIC50 values by entry
Test system: 926638-142-R-J1-PDC complex spheroid viability
Assay: Anticancer human tumor 926638-142-R-J1-PDC patient-derived endometrial carcinoma cell line growth inhibition [POLQ]
Conditions: curve of first compound; second compound 3.16 µM
Procedure: Multicellular complex tumor spheroid response to Polymerase (POL) inhibitors (novobiocin, ART-558, RP6685) in combination with a variety of drugs and investigational agents in selected tumor cell lines The POL inhibitors (novobiocin, ART-558, and RP6685) were evaluated both individually and in combination with standard of care and investigational anticancer small molecules within a complex spheroid model of solid tumors. . […]
pIC50: −log10 of the molar value.
Readout: pIC50

# Molecule, Readout, Rel, Measured
measured = [
    ("O=c1[nH]cc(F)c(=O)[nH]1 + Cc1cccc(N(C)C(=O)C2C(O)CCN2c2nc(C)cc(C(F)(F)F)c2C#N)c1", "pIC50", "<", 5.00),
    ("COc1cc2cc(C(=O)CCC(=O)O)sc2cc1OC + Nc1ccc(C#CCN(C(=O)Cc2ncc(C(F)(F)F)cc2C(F)(F)F)c2ccc(F)cc2)nn1", "pIC50", "<", 5.00),
    ("COc1cc2cc(C(=O)CCC(=O)O)sc2cc1OC + Cc1cccc(N(C)C(=O)C2C(O)CCN2c2nc(C)cc(C(F)(F)F)c2C#N)c1", "pIC50", "<", 5.00),
    ("Nc1ccn(C2OC(CO)C(O)C2(F)F)c(=O)n1 (stereo unspecified) + Cc1cccc(N(C)C(=O)C2C(O)CCN2c2nc(C)cc(C(F)(F)F)c2C#N)c1", "pIC50", "=", 6.09),
    ("CCc1cc2c(N3CCc4c(cc(Cn5ccnc5)cc4-c4cn(C)nc4C(F)(F)F)C3=O)ccnc2c(OC)n1 + Cc1cccc(N(C)C(=O)C2C(O)CCN2c2nc(C)cc(C(F)(F)F)c2C#N)c1", "pIC50", "=", 6.32),
    ("O=c1[nH]cc(F)c(=O)[nH]1 + Nc1ccc(C#CCN(C(=O)Cc2ncc(C(F)(F)F)cc2C(F)(F)F)c2ccc(F)cc2)nn1", "pIC50", "<", 5.00),
    ("CCCS(=O)(=O)Nc1ccc(F)c(C(=O)c2c[nH]c3ncc(-c4ccc(Cl)cc4)cc23)c1F + Nc1ccc(C#CCN(C(=O)Cc2ncc(C(F)(F)F)cc2C(F)(F)F)c2ccc(F)cc2)nn1", "pIC50", "=", 5.07),
    ("CC1COCCN1c1cc(C2(S(C)(=N)=O)CC2)nc(-c2ccnc3[nH]ccc23)n1 (stereo unspecified) + COC1C(OC(N)=O)C(O)C(Oc2ccc3c(O)c(NC(=O)c4ccc(O)c(CC=C(C)C)c4)c(=O)oc3c2C)OC1(C)C", "pIC50", "=", 5.23),
    ("COc1cc2cc(C(=O)CCC(=O)O)sc2cc1OC + COC1C(OC(N)=O)C(O)C(Oc2ccc3c(O)c(NC(=O)c4ccc(O)c(CC=C(C)C)c4)c(=O)oc3c2C)OC1(C)C", "pIC50", "<", 5.00),
    ("C=CCn1c(=O)c2cnc(Nc3ccc(N4CCN(C)CC4)cc3)nc2n1-c1cccc(C(C)(C)O)n1 + COC1C(OC(N)=O)C(O)C(Oc2ccc3c(O)c(NC(=O)c4ccc(O)c(CC=C(C)C)c4)c(=O)oc3c2C)OC1(C)C", "pIC50", "=", 6.56),
    ("CCc1cc2c(N3CCc4c(cc(Cn5ccnc5)cc4-c4cn(C)nc4C(F)(F)F)C3=O)cc(C)nc2c(OC)n1 + COC1C(OC(N)=O)C(O)C(Oc2ccc3c(O)c(NC(=O)c4ccc(O)c(CC=C(C)C)c4)c(=O)oc3c2C)OC1(C)C", "pIC50", "=", 6.61),
]

###

Quick reference for viability, T/C among some molecules
System: 926638-142-R-J1-PDC complex spheroid viability
Experiment: Anticancer human tumor 926638-142-R-J1-PDC cell line growth inhibition [POLQ];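 also: spheroids exposed to drugs for one week before readout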;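 as to viability, T/C: percent viability relative to DMSO vehicle control wells set as 100%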
Conditions: second compound 0.0316 µM; first compound 1 µM; stronger effect = lower value

# Molecule, viability, T/C [%]
data = [
    ("C#Cc1c(F)ccc2cc(O)cc(-c3ncc4c(N5CC6CCC(C5)N6)nc(OCC56CCCN5CC(F)C6)nc4c3F)c12 (stereo unspecified) + Cc1cccc(N(C)C(=O)C2C(O)CCN2c2nc(C)cc(C(F)(F)F)c2C#N)c1", 63.8),
    ("COc1cccc2c1C(=O)c1c(O)c3c(c(O)c1C2=O)CC(O)(C(=O)CO)CC3OC1CC(N)C(O)C(C)O1 (stereo unspecified) + Cc1cccc(N(C)C(=O)C2C(O)CCN2c2nc(C)cc(C(F)(F)F)c2C#N)c1", 2.89),
    ("CCc1cc2c(N3CCc4c(cc(Cn5ccnc5)cc4-c4cn(C)nc4C(F)(F)F)C3=O)ccnc2c(OC)n1 + Nc1ccc(C#CCN(C(=O)Cc2ncc(C(F)(F)F)cc2C(F)(F)F)c2ccc(F)cc2)nn1", 54.3),
    ("O=C(c1cc(Cc2n[nH]c(=O)c3ccccc23)ccc1F)N1CCN(C(=O)C2CC2)CC1 + COC1C(OC(N)=O)C(O)C(Oc2ccc3c(O)c(NC(=O)c4ccc(O)c(CC=C(C)C)c4)c(=O)oc3c2C)OC1(C)C", 115),
    ("C=CC(=O)N1CCN(c2nc(=O)n(-c3c(C)ccnc3C(C)C)c3nc(-c4c(O)cccc4F)c(F)cc23)C(C)C1 (stereo unspecified) + Nc1ccc(C#CCN(C(=O)Cc2ncc(C(F)(F)F)cc2C(F)(F)F)c2ccc(F)cc2)nn1", 92.5),
    ("CNCc1ccc(-c2[nH]c3cc(F)cc4c3c2CCNC4=O)cc1 + Cc1cccc(N(C)C(=O)C2C(O)CCN2c2nc(C)cc(C(F)(F)F)c2C#N)c1", 93.8),
]

###

Test system: 926638-142-R-J1-PDC complex spheroid viability
Assay: Anticancer human tumor 926638-142-R-J1-PDC cell line growth inhibition [POLQ];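 also: spheroids exposed to drugs for one week before readout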;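 as to viability, T/C: percent viability relative to DMSO vehicle control wells set as 100%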
Conditions: second compound 0.1 µM; first compound 0.0316 µM; stronger effect = lower value
Label rule met when viability, T/C is strictly below 90%; at or above that, label rule not met.

# Compound, Measurement Target, Assigned Class
rows = [
    ("CC[C@@]1(O)C(=O)OCc2c1cc1n(c2=O)Cc2cc3c(CN(C)C)c(O)ccc3nc2-1 + Nc1ccc(C#CCN(C(=O)Cc2ncc(C(F)(F)F)cc2C(F)(F)F)c2ccc(F)cc2)nn1", "926638-142-R-J1-PDC complex spheroid viability", "rule met"),
    ("CC1COCCN1c1cc(C2(S(C)(=N)=O)CC2)nc(-c2ccnc3[nH]ccc23)n1 (stereo not given) + COC1C(OC(N)=O)C(O)C(Oc2ccc3c(O)c(NC(=O)c4ccc(O)c(CC=C(C)C)c4)c(=O)oc3c2C)OC1(C)C", "926638-142-R-J1-PDC complex spheroid viability", "rule not met"),
    ("CCc1cc2c(N3CCc4c(cc(Cn5ccnc5)cc4-c4cn(C)nc4C(F)(F)F)C3=O)ccnc2c(OC)n1 + Cc1cccc(N(C)C(=O)C2C(O)CCN2c2nc(C)cc(C(F)(F)F)c2C#N)c1", "926638-142-R-J1-PDC complex spheroid viability", "rule not met"),
    ("Cn1ncnc1[C@H]1c2n[nH]c(=O)c3cc(F)cc(c23)N[C@@H]1c1ccc(F)cc1 + Cc1cccc(N(C)C(=O)C2C(O)CCN2c2nc(C)cc(C(F)(F)F)c2C#N)c1", "926638-142-R-J1-PDC complex spheroid viability", "rule met"),
    ("O=c1[nH]cc(F)c(=O)[nH]1 + Cc1cccc(N(C)C(=O)C2C(O)CCN2c2nc(C)cc(C(F)(F)F)c2C#N)c1", "926638-142-R-J1-PDC complex spheroid viability", "rule not met"),
    ("CC(C)n1c(=O)n(C)c2cnc3cc(F)c(-c4ccc(OCCCN5CCCCC5)nc4)cc3c21 + COC1C(OC(N)=O)C(O)C(Oc2ccc3c(O)c(NC(=O)c4ccc(O)c(CC=C(C)C)c4)c(=O)oc3c2C)OC1(C)C", "926638-142-R-J1-PDC complex spheroid viability", "rule not met"),
    ("CC1COCCN1c1cc(C2(O)CC3CCC(C2)O3)c2cnn(-c3ccn[nH]3)c2n1 (stereo not given) + Cc1cccc(N(C)C(=O)C2C(O)CCN2c2nc(C)cc(C(F)(F)F)c2C#N)c1", "926638-142-R-J1-PDC complex spheroid viability", "rule not met"),
    ("COc1cc2cc(C(=O)CCC(=O)O)sc2cc1OC + COC1C(OC(N)=O)C(O)C(Oc2ccc3c(O)c(NC(=O)c4ccc(O)c(CC=C(C)C)c4)c(=O)oc3c2C)OC1(C)C", "926638-142-R-J1-PDC complex spheroid viability", "rule met"),
    ("CCCS(=O)(=O)Nc1ccc(F)c(C(=O)c2c[nH]c3ncc(-c4ccc(Cl)cc4)cc23)c1F + COC1C(OC(N)=O)C(O)C(Oc2ccc3c(O)c(NC(=O)c4ccc(O)c(CC=C(C)C)c4)c(=O)oc3c2C)OC1(C)C", "926638-142-R-J1-PDC complex spheroid viability", "rule not met"),
    ("COc1ccc([C@@H](O)c2cc(-c3ncnc4cc(N5CCOCC5)ccc34)c(F)cc2Cl)nn1 + Nc1ccc(C#CCN(C(=O)Cc2ncc(C(F)(F)F)cc2C(F)(F)F)c2ccc(F)cc2)nn1", "926638-142-R-J1-PDC complex spheroid viability", "rule not met"),
    ("Cn1ncnc1[C@H]1c2n[nH]c(=O)c3cc(F)cc(c23)N[C@@H]1c1ccc(F)cc1 + Nc1ccc(C#CCN(C(=O)Cc2ncc(C(F)(F)F)cc2C(F)(F)F)c2ccc(F)cc2)nn1", "926638-142-R-J1-PDC complex spheroid viability", "rule met"),
    ("Cn1ncnc1[C@H]1c2n[nH]c(=O)c3cc(F)cc(c23)N[C@@H]1c1ccc(F)cc1 + COC1C(OC(N)=O)C(O)C(Oc2ccc3c(O)c(NC(=O)c4ccc(O)c(CC=C(C)C)c4)c(=O)oc3c2C)OC1(C)C", "926638-142-R-J1-PDC complex spheroid viability", "rule met"),
    ("COc1cccc(OCCCN)c1-c1cc(Nc2cnc(C#N)cn2)n[nH]1 + Nc1ccc(C#CCN(C(=O)Cc2ncc(C(F)(F)F)cc2C(F)(F)F)c2ccc(F)cc2)nn1", "926638-142-R-J1-PDC complex spheroid viability", "rule met"),
    ("O=c1[nH]cc(F)c(=O)[nH]1 + Nc1ccc(C#CCN(C(=O)Cc2ncc(C(F)(F)F)cc2C(F)(F)F)c2ccc(F)cc2)nn1", "926638-142-R-J1-PDC complex spheroid viability", "rule not met"),
]
